Test system: ABUTH Abutilon theophrasti
Assay: Pre-emergence herbicidal action against harmful plants
Assay type: in vivo
Conditions: 20 g/ha, scored visually after 3 weeks vs untreated controls
attributeMeasured: Pre-emergence action at 20 g/ha against ABUTH in % (%)
Quick note: give the figure in %, leave out the unit.

get_value(item= CCn1nnnc1NC(=O)c1c(F)cc(C(F)(F)F)c(C(=O)N(C)C2CC2)c1C [Example 2-97] , readout=Pre-emergence action at 20 g/ha against ABUTH in %) returns 100

Field Pre-emergence action at 20 g/ha against ABUTH in % (entry Cc1c(C(=O)Nc2nnnn2C)c(F)cc(C(F)(F)F)c1C(=O)N(C)C1CC1 [Example 1-97] ) reads 100

Just so you know, measured Pre-emergence action at 20 g/ha against ABUTH in % for CCn1nnnc1NC(=O)c1c(F)cc(C(F)(F)F)c(C(=O)NCC2CC2)c1C [Example 2-384] came out at 90

The reported value for CCn1nnnc1NC(=O)c1cc(Cl)c(C(F)(F)F)c(C(=O)NC2CC2)c1C [Example 2-85] in terms of Pre-emergence action at 20 g/ha against ABUTH in % is 80

GET /value?item= CCNC(=O)c1c(C(F)(F)F)cc(F)c(C(=O)Nc2nnnn2C)c1C [Example 1-93] &field=Pre-emergence action at 20 g/ha against ABUTH in % returns 100

###

System: PHBPU Pharbitis purpurea
Experiment: Pre-emergence herbicidal action against harmful plants
Type: in vivo
Settings: 80 g/ha, scored visually after 3 weeks vs untreated controls
attributeMeasured: Pre-emergence action at 80 g/ha against PHBPU in %

Here CCNC(=O)c1c(C(F)(F)F)cc(F)c(C(=O)Nc2nnnn2C)c1C [Example 1-93] was tested on PHBPU Pharbitis purpurea, and its Pre-emergence action at 80 g/ha against PHBPU in % came to 90%

The molecule Cc1c(C(=O)Nc2nnnn2C)cc(Cl)c(C(F)(F)F)c1C(=O)NC1CC1 [Example 1-85] , tested on PHBPU Pharbitis purpurea, showed Pre-emergence action at 80 g/ha against PHBPU in % of 80%

Test item CCN(C)C(=O)c1c(C(F)(F)F)cc(F)c(C(=O)Nc2nnnn2CC)c1C [Example 2-96] ; PHBPU Pharbitis purpurea; reported Pre-emergence action at 80 g/ha against PHBPU in % was 80%

Record for CCn1nnnc1NC(=O)c1c(F)cc(C(F)(F)F)c(C(=O)NC)c1C [Example 2-92] under target or system PHBPU Pharbitis purpurea: Pre-emergence action at 80 g/ha against PHBPU in % reported as 80%
